FYI, the data here is from ChEMBL document CHEMBL3988442.

Each record here notes measured Percent Effect.
Tested on: Wolbachia pipientis
Assay: Anti-Wolbachia Cell-Based Screen
Format: functional
Set-up: scale not given: in the data most compounds retested in dose-response had high values
Conditions: 5 µM
Out of some 48,000 compounds screened, about 13,000 (27%) showed an effect of 50% or more. The list shows a part of the results.
Measurement Type: Percent Effect (%)

- Cc1ccc(NC2CCN(C(=O)CCCn3ccnc3C)CC2)nn1: 100.9
- CCN(CC)Cc1ccccc1NCc1c(C)noc1C: -28.25
- Cc1nccn1CCCC(=O)N1CCC(Nc2cccnn2)CC1: 11.87
- Cc1ccc(NC2CCN(C(=O)CCNc3ncccn3)CC2)nn1: 111.7
- Cc1cc(C)n(C2CN(CC(O)COc3ccc(F)cc3)C2)n1 (stereo unspecified): 3.815
- CC(C)(C)C(=O)NCCC(=O)N1CCC(Nc2cccnn2)CC1: 101.9
